Could you please report measured Potency for the items listed next?
Test system: HIV-1 nucleocapsid protein NCp7 (binding to TG oligonucleotide)
run_description: HIV Nucleocapsid (AID 346);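 note: potency is the fitted concentration of half-maximal effect; potency is for inhibitors that block NC binding and lower polarization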
details: HIV-1 NC / fluorescein-TGTGTGTG probe, fluorescence polarization
Active and inactive are the calls of the source. The rule behind the calls is not given here.

## Input Name the reported Potency value associated with the compound Cn1cccc1C(=O)N1CCC2(CC1)CCN(c1ccccn1)CC2
## Output > 20 µM (inactive)

## Input Sample Cc1cccc(CNc2nc(-c3ccoc3)nc3ccccc23)c1 — what was its Potency?
## Output > 20 µM (inactive)

## Input # Potency lookup, item COc1ccc(CNc2ccnc(-c3ccc4c(c3)OCO4)n2)c(OC)c1
## Output > 20 µM (inactive)

## Input Given the entry CN(C)c1ncnc2ccc(-c3cccc(C#N)c3)cc12 , report its measured Potency.
## Output > 20 µM (inactive)

## Input Form field: reported Potency of O=c1cnc2cnc(Nc3ccccc3)nc2n1C[C@H]1CCCO1
## Output > 20 µM (inactive)

## Input Request the reported Potency associated with CN(C)c1ncc2ncc(=O)n(Cc3ccc(F)cc3)c2n1
## Output > 20 µM (inactive)

## Input Given the entry COc1ccc2[nH]cc(CCNc3nc(-c4ccc(N(C)C)cc4)nc4ccccc34)c2c1 , report its measured Potency.
## Output > 20 µM (inactive)

## Input // returns reported Potency for input Cc1noc(C)c1-c1ccc2ncnc(NCCN3CCOCC3)c2c1
## Output > 20 µM (inactive)

====

run_description: qHTS assay for small molecule disruptors of the mitochondrial membrane potential - 1 hr assay (AID 651754); note: nearly all actives have a fitted effect of over 35% in size
details: series mostly up to 92.2 µM
Inconclusive results are not listed. Calls of active or inactive are those of the source. Calls follow the shape of the full dose curve.
Would you mind answering with one of these outcomes? yes (1) = active, no (0) = inactive

## Input Kindly provide the recorded test outcome for the following compound: Oc1cccc(Cl)c1Cl
## Output no (0)

## Input Kindly provide the recorded test outcome for the following compound: O=C(O)c1cccc(Cl)c1
## Output no (0)

## Input Which outcome was entered for the compound C1CC2OC2CC1C1CO1 (centres undefined) in this test?
## Output no (0)

## Input // outcome(item) with item = ClCCCCl
## Output no (0)

## Input Dear all, I need the recorded test outcome for Oc1ccc(Cl)c(Cl)c1 , thank you.
## Output yes (1)

## Input Assay result, entry CN=C=O — outcome?
## Output no (0)

## Input Entry CCCCOC(=O)c1ccccc1N : call = ?
## Output no (0)

## Input Recorded test outcome, item CC1CC(=O)O1 (centres undefined)
## Output no (0)

## Input // outcome(item) with item = CN(C)C(=O)Nc1cccc(C(F)(F)F)c1
## Output no (0)

## Input Per the records of this test, what outcome belongs to Clc1cccc(Cl)c1 ?
## Output no (0)

## Input Record lookup: outcome of this test for Clc1ccc(C(Cl)(Cl)Cl)c(Cl)c1 ?
## Output no (0)

## Input What call does the record list for Nc1cc(Cl)ccc1Cl ?
## Output no (0)

## Input State the result this test recorded for CC(C)(Cl)Cl .
## Output no (0)

## Input Query: recorded result category for CN(C)C(=O)Nc1ccc(Cl)cc1 in this test
## Output no (0)

## Input Tell me the recorded outcome of this test for CC(=O)[O-].CC(=O)[O-].CC(=O)[O-].[Cr+3] .
## Output no (0)

## Input Hi team, can someone confirm the assay call for Clc1ccccc1 ?
## Output no (0)

## Input Per the records of this test, what outcome belongs to BrCCc1ccccc1 ?
## Output no (0)

## Input What outcome does the record of this test show for COc1c(C(C)(C)C)cc([N+](=O)[O-])c(C)c1[N+](=O)[O-] ?
## Output no (0)

## Input GET /call?item= [N-]=[N+]=[N-] returns the recorded outcome of this test.
## Output no (0)

## Input Recorded test call requested for Cc1ccc([N+](=O)[O-])cc1
## Output no (0)

## Input Answer briefly: the call reported for Cc1cc(C)cc(OP(=O)(Oc2cc(C)cc(C)c2)Oc2cc(C)cc(C)c2)c1 in this assay.
## Output yes (1)

## Input Outcome logged for COC(=O)Nc1cccc(OC(=O)Nc2cccc(C)c2)c1 in this assay:
## Output yes (1)

## Input Outcome logged for Nc1c(Br)cc([N+](=O)[O-])cc1[N+](=O)[O-] in this assay:
## Output yes (1)

## Input Field: outcome | Entry: Clc1cccc(Cl)c1Cl
## Output no (0)

## Input Tell me the assay call for BrCC(Br)C1CCC(Br)C(Br)C1 (centres undefined) please.
## Output no (0)

## Input Give the logged outcome of this assay for the following compound: N#CC(Br)Br
## Output no (0)

## Input Recorded test outcome, item N#CCCCCC#N
## Output no (0)

## Input Per the assay record, what outcome was assigned to CCC[N+](=O)[O-] ?
## Output no (0)

## Input Could you please tell me the result logged for Cl/C=C\Cl in this assay?
## Output no (0)
